A short record of IC50 observed with human placental topoisomerase I (Homo sapiens) follows.
Sequence (P11387 whole entry): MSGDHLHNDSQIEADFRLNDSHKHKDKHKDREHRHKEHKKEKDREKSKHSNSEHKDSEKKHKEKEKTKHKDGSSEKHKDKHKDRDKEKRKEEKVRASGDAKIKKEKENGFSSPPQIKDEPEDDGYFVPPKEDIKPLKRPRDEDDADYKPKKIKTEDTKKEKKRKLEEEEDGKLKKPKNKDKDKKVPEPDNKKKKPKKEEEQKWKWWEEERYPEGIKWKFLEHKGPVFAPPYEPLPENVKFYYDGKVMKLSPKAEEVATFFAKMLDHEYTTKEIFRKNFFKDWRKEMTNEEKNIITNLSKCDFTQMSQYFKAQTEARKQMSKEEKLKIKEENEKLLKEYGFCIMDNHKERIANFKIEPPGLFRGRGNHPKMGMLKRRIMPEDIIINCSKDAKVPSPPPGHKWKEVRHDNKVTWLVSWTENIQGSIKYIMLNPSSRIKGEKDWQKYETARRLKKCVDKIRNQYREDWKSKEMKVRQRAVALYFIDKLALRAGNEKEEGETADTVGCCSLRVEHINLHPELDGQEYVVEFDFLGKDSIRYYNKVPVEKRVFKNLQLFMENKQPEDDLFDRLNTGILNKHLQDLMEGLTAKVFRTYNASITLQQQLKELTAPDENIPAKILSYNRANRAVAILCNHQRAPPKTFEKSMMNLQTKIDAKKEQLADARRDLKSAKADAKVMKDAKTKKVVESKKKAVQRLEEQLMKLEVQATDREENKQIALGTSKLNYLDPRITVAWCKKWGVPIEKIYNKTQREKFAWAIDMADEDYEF

Compound: CC[C@@]1(O)C(=O)OCc2c1cc1n(c2=O)Cc2c-1nc1ccccc1c2CO[C@@H]1C=C[C@H](O[C@H]2O[C@H](CO)[C@@H](O)[C@H](O)[C@H]2O)[C@@H](CO)O1 [HAR6]
Value prefix: >
IC50 (µM): 150

Compound: CC[C@@]1(O)C(=O)OCc2c1cc1n(c2=O)Cc2c-1nc1ccccc1c2CO[C@@H]1C=C[C@H](OC(C)=O)[C@@H](COC(C)=O)O1 [HAR4]
Value prefix: =
IC50 (µM): 42.3

Compound: CC[C@@]1(O)C(=O)OCc2c1cc1n(c2=O)Cc2c-1nc1ccccc1c2CO[C@@H]1C=C[C@H](O)[C@@H](CO)O1 [HAR7]
Value prefix: =
IC50 (µM): 3.95

Compound: CC[C@@]1(O)C(=O)OCc2c1cc1n(c2=O)Cc2c-1nc1ccccc1c2CO[C@@H]1C=C[C@H](O[C@H]2O[C@H](COC(C)=O)[C@@H](OC(C)=O)[C@H](OC(C)=O)[C@H]2OC(C)=O)[C@@H](COC(C)=O)O1 [HAR5]
Value prefix: >
IC50 (µM): 114

###

Assay: Water solubility in phosphate buffered saline (spectrophotometric assay)
Assay type: physicochemical
Settings: aqueous buffer; water solubility; PBS pH 7.5, room temperature, 24 hr

Structure string: CC[C@@]1(O)C(=O)OCc2c1cc1n(c2=O)Cc2c-1nc1ccccc1c2CO[C@@H]1C=C[C@H](O[C@H]2O[C@H](COC(C)=O)[C@@H](OC(C)=O)[C@H](OC(C)=O)[C@H]2OC(C)=O)[C@@H](COC(C)=O)O1
solubility at 24 h, µg/mL: 35

Structure string: CC[C@@]1(O)C(=O)OCc2c1cc1n(c2=O)Cc2c-1nc1ccccc1c2CO[C@@H]1C=C[C@H](O)[C@@H](CO)O1
solubility at 24 h, µg/mL: 62

Structure string: CC[C@@]1(O)C(=O)OCc2c1cc1n(c2=O)Cc2c-1nc1ccccc1c2CO[C@@H]1C=C[C@H](O[C@H]2O[C@H](CO)[C@@H](O)[C@H](O)[C@H]2O)[C@@H](CO)O1
solubility at 24 h, µg/mL: 1620

Structure string: CC[C@@]1(OC(C)=O)C(=O)OCc2c1cc1n(c2=O)Cc2cc3ccccc3nc2-1
solubility at 24 h, µg/mL: 6.5

###

Test: Solubility of HAR7 in various solvents and solvent systems
Type: physicochemical
Conditions: 4:1:5 pg/ethanol/water, organic solvent or mixture

Compound: CC[C@@]1(O)C(=O)OCc2c1cc1n(c2=O)Cc2c-1nc1ccccc1c2CO[C@@H]1C=C[C@H](O)[C@@H](CO)O1 [HAR7]
Output unit: µg/mL
solubility: 740

###

Assay: Solubility of HAR7 in various solvents and solvent systems
Assay type: physicochemical
Conditions: 0.2 m nah2po4 buffer, aqueous buffer

Structure string: CC[C@@]1(O)C(=O)OCc2c1cc1n(c2=O)Cc2c-1nc1ccccc1c2CO[C@@H]1C=C[C@H](O)[C@@H](CO)O1
solubility / µg/mL: 32

###

Tested on: HT-29 human colon adenocarcinoma cells
Assay: MTT growth inhibition, HT-29
Format: cell-based
Conditions: 144 h, HT-29, MTT, 6 days, read-out: Growth Inhibitory Activity IC50
From the text: Camptothecin was used as a control to test the anti-cancer efficacy of the novel camptothecin analogs of the present invention. […] [See "Rapid Colorimetric Assay For Cellular Growth And Survival: Application To Proliferation And Cytotoxicity Assays," J. Immun. […] The assay utilizes a tetrazolium salt to quantitatively measure mammalian cell survival and proliferation by colorimetric methods. […]

Molecule: CC[C@@]1(O)C(=O)OCc2c1cc1n(c2=O)Cc2cc3ccccc3nc2-1 [camptothecin, reference compound]
Measurement target: HT-29 human colon adenocarcinoma cells
IC50: 0.002 µg/mL
//
Molecule: CC[C@@]1(O)C(=O)OCc2c1cc1n(c2=O)Cc2c-1nc1ccccc1c2CO[C@@H]1C=C[C@H](O)[C@@H](CO)O1 [HAR7]
Measurement target: HT-29 human colon adenocarcinoma cells
IC50: 0.031 µg/mL
//
Molecule: CC[C@@]1(O)C(=O)OCc2c1cc1n(c2=O)Cc2c-1nc1ccccc1c2CO[C@@H]1C=C[C@H](O[C@H]2O[C@H](COC(C)=O)[C@@H](OC(C)=O)[C@H](OC(C)=O)[C@H]2OC(C)=O)[C@@H](COC(C)=O)O1 [HAR5]
Measurement target: HT-29 human colon adenocarcinoma cells
IC50: 0.105 µg/mL
//
Molecule: CC[C@@]1(O)C(=O)OCc2c1cc1n(c2=O)Cc2c-1nc1ccccc1c2CO[C@@H]1C=C[C@H](OC(C)=O)[C@@H](COC(C)=O)O1 [HAR4]
Measurement target: HT-29 human colon adenocarcinoma cells
IC50: 0.011 µg/mL
//
Molecule: CC[C@@]1(O)C(=O)OCc2c1cc1n(c2=O)Cc2c-1nc1ccccc1c2CO[C@@H]1C=C[C@H](O[C@H]2O[C@H](CO)[C@@H](O)[C@H](O)[C@H]2O)[C@@H](CO)O1 [HAR6]
Measurement target: HT-29 human colon adenocarcinoma cells
IC50: 0.476 µg/mL

###

Test: Solubility of HAR7 in various solvents and solvent systems
Assay type: physicochemical
Conditions: 5% ethanol/dsw, organic solvent or mixture

Structure string: CC[C@@]1(O)C(=O)OCc2c1cc1n(c2=O)Cc2c-1nc1ccccc1c2CO[C@@H]1C=C[C@H](O)[C@@H](CO)O1
solubility [µg/mL]: 177

###

Experiment: Solubility of HAR7 in various solvents and solvent systems
Assay type: physicochemical
Conditions: 0.1 m citrate buffer, aqueous buffer

Compound: CC[C@@]1(O)C(=O)OCc2c1cc1n(c2=O)Cc2c-1nc1ccccc1c2CO[C@@H]1C=C[C@H](O)[C@@H](CO)O1 [HAR7]
solubility, µg/mL: 24

###

Test: Solubility of HAR7 in various solvents and solvent systems
Format: physicochemical
Conditions: 4:1:5 pg/ethanol/saline, organic solvent or mixture
Experimental: In addition to testing for water solubility, one of the analogs of the present invention, HAR7, was tested for solubility in various other solvents and solvent mixtures, to determine the system which provides the greatest solubility for the analog. The results of those solubility experiments are shown below in Table 2: The solubility of HAR7 in various solvents and solvent systems was measured using one of two experimental methods, depending on the conditions and solvents used. […]

Compound: CC[C@@]1(O)C(=O)OCc2c1cc1n(c2=O)Cc2c-1nc1ccccc1c2CO[C@@H]1C=C[C@H](O)[C@@H](CO)O1 [HAR7]
solubility [µg/mL]: 893

###

Assay: Solubility of HAR7 in various solvents and solvent systems
Format: physicochemical
Conditions: 4:1:5 pg/ethanol/dsw, organic solvent or mixture
Readout type: solubility (µg/mL)

Structure string: CC[C@@]1(O)C(=O)OCc2c1cc1n(c2=O)Cc2c-1nc1ccccc1c2CO[C@@H]1C=C[C@H](O)[C@@H](CO)O1
Endpoint value: 960

###

Experiment: in vivo
Details: mouse, in vivo, ip

Structure string: CC[C@@]1(O)C(=O)OCc2c1cc1n(c2=O)Cc2c-1nc1ccccc1c2CO[C@@H]1C=C[C@H](O[C@H]2O[C@H](CO)[C@@H](O)[C@H](O)[C@H]2O)[C@@H](CO)O1
Output unit: mg/kg
MTD: 100
//
Structure string: CC[C@@]1(O)C(=O)OCc2c1cc1n(c2=O)Cc2c-1nc1ccccc1c2CO[C@@H]1C=C[C@H](OC(C)=O)[C@@H](COC(C)=O)O1
Output unit: mg/kg
MTD: 10

###

System: B16 murine melanoma cells
Assay: MTT growth inhibition, B16
Format: cell-based
Settings: Mus musculus, 72 h, 3 days, read-out: Growth Inhibitory Activity IC50
Excerpt: Camptothecin was used as a control to test the anti-cancer efficacy of the novel camptothecin analogs of the present invention. […] [See "Rapid Colorimetric Assay For Cellular Growth And Survival: Application To Proliferation And Cytotoxicity Assays," J. Immun. […] The assay utilizes a tetrazolium salt to quantitatively measure mammalian cell survival and proliferation by colorimetric methods. […]
// returns not met unless IC50 is strictly below 0.2 µg/mL, in which case met

Compound: CC[C@@]1(O)C(=O)OCc2c1cc1n(c2=O)Cc2c-1nc1ccccc1c2CO[C@@H]1C=C[C@H](O[C@H]2O[C@H](CO)[C@@H](O)[C@H](O)[C@H]2O)[C@@H](CO)O1
Group label: not met
--
Compound: CC[C@@]1(O)C(=O)OCc2c1cc1n(c2=O)Cc2c-1nc1ccccc1c2CO[C@@H]1C=C[C@H](O[C@H]2O[C@H](COC(C)=O)[C@@H](OC(C)=O)[C@H](OC(C)=O)[C@H]2OC(C)=O)[C@@H](COC(C)=O)O1
Group label: not met
--
Compound: CC[C@@]1(O)C(=O)OCc2c1cc1n(c2=O)Cc2cc3ccccc3nc2-1 [camptothecin, reference compound]
Group label: met
--
Compound: CC[C@@]1(O)C(=O)OCc2c1cc1n(c2=O)Cc2c-1nc1ccccc1c2CO[C@@H]1C=C[C@H](O)[C@@H](CO)O1
Group label: met
--
Compound: CC[C@@]1(O)C(=O)OCc2c1cc1n(c2=O)Cc2c-1nc1ccccc1c2CO[C@@H]1C=C[C@H](OC(C)=O)[C@@H](COC(C)=O)O1
Group label: met

Reference source for all entries: patent US5932709A
